src = patent US8642623B2

Each record here notes measured pKi.
# target.of.assay: vanilloid receptor (VR1) (Homo sapiens, UniProt Q8NER1)
# assay.remarks: FLIPR Ca2+ influx assay with CHO K1 cells transfected with the human VR1 gene, capsaicin stimulus (Pharmacological method II)
# measurement.setup: capsaicin 100 nM stimulus, Ki from IC50 by Cheng-Prusoff
Please treat pKi as minus the base-10 logarithm of the molar concentration.

                                   compound  reported_value
0  CCC(=O)N(c1ccccc1)C1CCN(c2nc(C(F)(F)F)ccc2CNC(=O)C(C)c2ccc(N(C(=O)CC)S(C)(=O)=O)c(F)c2)CC1 (stereo not drawn)            7.16

*Q* Fill in: pKi of CC1CCN(c2cc(C(C)(C)C)ccc2CNC(=O)C(C)c2ccc(N(C)S(C)(=O)=O)c(F)c2)CC1 (stereo not drawn) is ___
*A* 7.88

*Q* Please do the same for CC(C(=O)NCc1ccc(C(C)(C)C)cc1SC1CCCCC1)c1ccc(N(C)S(C)(=O)=O)c(F)c1 (stereo not drawn) as well.
*A* 7.74

* * *

Each record here notes measured Ki.
# target.of.assay: vanilloid receptor 1 (VR1/TRPV1) of the rat species (Rattus norvegicus, UniProt O35433)
# Construct: The spinal column is removed from decapitated rats; from tissue; host or cells: primary cells from rat dorsal root ganglia (DRG)
# Sequence (O35433 whole entry): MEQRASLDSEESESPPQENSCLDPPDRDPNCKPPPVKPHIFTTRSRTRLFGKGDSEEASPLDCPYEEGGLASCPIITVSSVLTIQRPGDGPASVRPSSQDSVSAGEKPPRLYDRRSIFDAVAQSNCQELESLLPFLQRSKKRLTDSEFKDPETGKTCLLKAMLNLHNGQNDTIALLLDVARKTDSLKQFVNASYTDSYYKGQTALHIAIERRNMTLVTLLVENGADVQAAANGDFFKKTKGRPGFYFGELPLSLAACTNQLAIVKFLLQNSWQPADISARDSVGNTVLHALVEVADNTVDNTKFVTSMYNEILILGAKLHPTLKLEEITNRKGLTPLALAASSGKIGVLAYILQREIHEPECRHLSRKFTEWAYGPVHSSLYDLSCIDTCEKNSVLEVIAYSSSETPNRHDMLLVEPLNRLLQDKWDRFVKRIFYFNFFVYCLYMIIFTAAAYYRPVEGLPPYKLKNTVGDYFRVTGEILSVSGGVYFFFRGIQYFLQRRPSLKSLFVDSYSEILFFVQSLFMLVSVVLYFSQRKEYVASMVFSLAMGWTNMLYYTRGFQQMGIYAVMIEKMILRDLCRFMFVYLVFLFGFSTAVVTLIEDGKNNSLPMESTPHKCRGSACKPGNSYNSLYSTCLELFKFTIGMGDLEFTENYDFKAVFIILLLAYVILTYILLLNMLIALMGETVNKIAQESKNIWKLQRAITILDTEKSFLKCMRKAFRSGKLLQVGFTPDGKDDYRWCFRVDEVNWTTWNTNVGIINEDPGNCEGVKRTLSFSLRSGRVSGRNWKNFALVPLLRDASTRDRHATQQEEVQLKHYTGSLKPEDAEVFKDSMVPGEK
# assay.remarks: FLIPR Ca2+ influx assay on rat dorsal root ganglia cells, capsaicin stimulus (Pharmacological method I)
# Type: cell-based
# measurement.setup: capsaicin 100 nM stimulus, Ki from IC50 by Cheng-Prusoff
The answer is to be given in nM; state only the numeric part.

These solved cases illustrate the format of a correct answer.
>>> df
                                   compound  reported_value
0  CC(C(=O)NCc1ccc(C(F)(F)F)nc1SC1CCCCC1)c1ccc(N(C)S(C)(=O)=O)c(F)c1 (stereo not drawn)            30.8
1  CCN(c1ccc([C@H](C)C(=O)NCc2ccc(C(C)(C)C)cc2)cc1F)S(C)(=O)=O            66.8
2  CC1CCN(c2nc(C(F)(F)F)ccc2CNC(=O)C(C)c2ccc(N(C)S(C)(=O)=O)c(F)c2)CC1 (stereo not drawn)              20
3  CC(C(=O)NCc1ccc(C(C)(C)C)cc1)c1ccc(N(C)S(C)(=O)=O)c(F)c1 (stereo not drawn)            50.4
4  CC1CCN(c2cc(C(C)(C)C)ccc2CNC(=O)C(C)c2ccc(N(C)S(C)(=O)=O)c(F)c2)CC1 (stereo not drawn)               3

*Q* Fill in: Ki of CC(=O)N(c1ccc(C(C)C(=O)NCc2ccc(C(F)(F)F)nc2N2CCC(C)CC2)cc1F)S(C)(=O)=O (stereo not drawn) is ___
*A* 2.2

* * *

# target.of.assay: vanilloid receptor (VR1) (Homo sapiens, UniProt Q8NER1)
# assay.remarks: FLIPR Ca2+ influx assay with CHO K1 cells transfected with the human VR1 gene, capsaicin stimulus (Pharmacological method II)
# measurement.setup: capsaicin 100 nM stimulus, Ki from IC50 by Cheng-Prusoff
Each record here notes measured pKi.
Please treat pKi as minus the base-10 logarithm of the molar concentration.

                                   compound  reported_value
0  CC(C(=O)NCc1ccc(C(F)(F)F)nc1SC1CCCCC1)c1ccc(N(C)S(C)(=O)=O)c(F)c1 (stereo not shown)            7.32
1  CC1CCN(c2cc(C(F)(F)F)ccc2CNC(=O)C(C)c2ccc(N(C)S(C)(=O)=O)c(F)c2)CC1 (stereo not shown)            8.11
2  CCN(c1ccc(C(C)C(=O)NCc2ccc(C(F)(F)F)nc2N2CCC(C)CC2)cc1F)S(C)(=O)=O (stereo not shown)            7.64
3  CC1CCN(c2nc(C(C)(C)C)ccc2CNC(=O)C(C)c2ccc(N(C)S(C)(=O)=O)c(F)c2)CC1 (stereo not shown)            7.56
4  CC(C(=O)NCc1ccc(C(F)(F)F)cc1SC1CCCCC1)c1ccc(N(C)S(C)(=O)=O)c(F)c1 (stereo not shown)            7.48

*Q* Form entry - test system: vanilloid receptor (VR1) (Homo sapiens, UniProt Q8NER1); read-out: pKi; compound: CC(=O)N(c1ccc(C(C)C(=O)NCc2ccc(C(F)(F)F)nc2N2CCC(C)CC2)cc1F)S(C)(=O)=O (stereo not shown)
*A* 7.92

*Q* Please do the same for CC1CCN(c2nc(C(F)(F)F)ccc2CNC(=O)C(C)c2ccc(N(C)S(C)(=O)=O)c(F)c2)CC1 (stereo not shown) as well.
*A* 7.26

* * *

Each record here notes measured pIC50.
# target.of.assay: vanilloid receptor 1 (VR1/TRPV1 receptor) (Homo sapiens)
# Sequence (Q8NER1 whole entry): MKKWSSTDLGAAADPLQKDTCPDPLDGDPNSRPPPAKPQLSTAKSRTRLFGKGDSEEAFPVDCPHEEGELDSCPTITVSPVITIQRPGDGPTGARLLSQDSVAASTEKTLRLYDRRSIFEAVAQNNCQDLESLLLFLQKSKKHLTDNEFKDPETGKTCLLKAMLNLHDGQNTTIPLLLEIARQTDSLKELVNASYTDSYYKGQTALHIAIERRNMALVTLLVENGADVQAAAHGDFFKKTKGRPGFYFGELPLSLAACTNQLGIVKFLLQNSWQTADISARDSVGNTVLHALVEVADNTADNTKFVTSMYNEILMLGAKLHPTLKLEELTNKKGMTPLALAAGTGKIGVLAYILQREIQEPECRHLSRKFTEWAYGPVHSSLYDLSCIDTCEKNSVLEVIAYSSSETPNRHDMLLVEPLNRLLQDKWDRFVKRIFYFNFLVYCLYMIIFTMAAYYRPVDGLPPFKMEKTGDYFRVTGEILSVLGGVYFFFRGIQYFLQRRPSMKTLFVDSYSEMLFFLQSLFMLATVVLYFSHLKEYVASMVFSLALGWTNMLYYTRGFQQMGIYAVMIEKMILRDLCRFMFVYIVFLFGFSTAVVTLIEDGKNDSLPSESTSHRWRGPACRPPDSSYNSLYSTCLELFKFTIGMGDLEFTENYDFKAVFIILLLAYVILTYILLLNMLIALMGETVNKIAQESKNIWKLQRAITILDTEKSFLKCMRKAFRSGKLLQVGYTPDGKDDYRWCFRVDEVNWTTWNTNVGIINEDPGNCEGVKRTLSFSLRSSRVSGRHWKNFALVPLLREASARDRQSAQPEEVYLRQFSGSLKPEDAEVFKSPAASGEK
# assay.remarks: Human VR1/TRPV1 receptor inhibition after pH stimulus
Please treat pIC50 as minus the base-10 logarithm of the molar concentration.

In [3]: df
Out[3]:
                                   molecule  reported_value
0  CC(=O)N(c1ccc(C(C)C(=O)NCc2ccc(C(F)(F)F)nc2N2CCC(C)CC2)cc1F)S(C)(=O)=O (centres unmarked)            6.02

*Q* Fill in: pIC50 of CCC(=O)N(c1ccccc1)C1CCN(c2nc(C(F)(F)F)ccc2CNC(=O)C(C)c2ccc(N(C(=O)CC)S(C)(=O)=O)c(F)c2)CC1 (centres unmarked) is ___
*A* 6.28
